Consider the following binders; for each one, report its Activity in β-Klotho-ERK cells (EC50).
# target_entity: β-Klotho overexpressed on HEK293 cells
# assay_name: cell-based or functional assay
Write down the numeric answer in nM and omit the unit.

Identify measured Activity in β-Klotho-ERK cells (EC50) associated with FGF21 (Del-P171) mutant 1408 (ligand) HPIPDSSPLLQFGGQVRQRYLYTDDAQQTEAHLEIREDGTVGGAADQSPESLLQLKALKPGVIQILGVKTSRFLCQRPDGALYGSLHFDPEACSFRELLLEDGYNVYQSEAHGLPLHLPGQKSPHRDPAPRGPARFLPLPGLPPALPEPPGILAPQPPDVGSSDPLSLVGSQGRSPSYAS 1.48

Identify measured Activity in β-Klotho-ERK cells (EC50) associated with FGF21 (121Q, 168L) mutant 1414 (ligand, Control that stands for wild-type FGF21; An alanine is added before His1 of mature FGF21; also called FGF21 control mutant 1414) HPIPDSSPLLQFGGQVRQRYLYTDDAQQTEAHLEIREDGTVGGAADQSPESLLQLKALKPGVIQILGVKTSRFLCQRPDGALYGSLHFDPEACSFRELLLEDGYNVYQSEAHGLPLHLPGQKSPHRDPAPRGPARFLPLPGLPPALPEPPGILAPQPPDVGSSDPLSLVGPSQGRSPSYAS 0.85

Identify measured Activity in β-Klotho-ERK cells (EC50) associated with FGF21 (P171G) mutant 1407 (ligand, also called FGF21 mutant P171G) HPIPDSSPLLQFGGQVRQRYLYTDDAQQTEAHLEIREDGTVGGAADQSPESLLQLKALKPGVIQILGVKTSRFLCQRPDGALYGSLHFDPEACSFRELLLEDGYNVYQSEAHGLPLHLPGQKSPHRDPAPRGPARFLPLPGLPPALPEPPGILAPQPPDVGSSDPLSLVGGSQGRSPSYAS 1.15

Identify measured Activity in β-Klotho-ERK cells (EC50) associated with FGF21 (170C/Ins-172S/173C) mutant 1413 (ligand, disulfide bond introduced between 170C and 173C, A small number of incorrect dimers is reported) HPIPDSSPLLQFGGQVRQRYLYTDDAQQTEAHLEIREDGTVGGAADQSPESLLQLKALKPGVIQILGVKTSRFLCQRPDGALYGSLHFDPEACSFRELLLEDGYNVYQSEAHGLPLHLPGQKSPHRDPAPRGPARFLPLPGLPPALPEPPGILAPQPPDVGSSDPLSLVCPSCQGRSPSYAS 2.09

Identify measured Activity in β-Klotho-ERK cells (EC50) associated with FGF21 (170C/173C) mutant 1411 (ligand, disulfide bond introduced between 170C and 173C, Only a trace amount of incorrect dimers is reported) HPIPDSSPLLQFGGQVRQRYLYTDDAQQTEAHLEIREDGTVGGAADQSPESLLQLKALKPGVIQILGVKTSRFLCQRPDGALYGSLHFDPEACSFRELLLEDGYNVYQSEAHGLPLHLPGQKSPHRDPAPRGPARFLPLPGLPPALPEPPGILAPQPPDVGSSDPLSLVCPSCGRSPSYAS 0.999

Identify measured Activity in β-Klotho-ERK cells (EC50) associated with FGF21 (170C/Ins-172A/173C) mutant 1412 (ligand, disulfide bond introduced between 170C and 173C, A small number of incorrect dimers is reported) HPIPDSSPLLQFGGQVRQRYLYTDDAQQTEAHLEIREDGTVGGAADQSPESLLQLKALKPGVIQILGVKTSRFLCQRPDGALYGSLHFDPEACSFRELLLEDGYNVYQSEAHGLPLHLPGQKSPHRDPAPRGPARFLPLPGLPPALPEPPGILAPQPPDVGSSDPLSLVCPACQGRSPSYAS 2.52

Identify measured Activity in β-Klotho-ERK cells (EC50) associated with FGF21 (170C/Ins-172G/173C) mutant 1409 (ligand, intramolecular disulfide bond between C170 and C173) HPIPDSSPLLQFGGQVRQRYLYTDDAQQTEAHLEIREDGTVGGAADQSPESLLQLKALKPGVIQILGVKTSRFLCQRPDGALYGSLHFDPEACSFRELLLEDGYNVYQSEAHGLPLHLPGQKSPHRDPAPRGPARFLPLPGLPPALPEPPGILAPQPPDVGSSDPLSLVCPGCQGRSPSYAS 2.14
